# PROCEDURE_DETAILS: Toxicity liver stage against HepG2, at 10uM
# Format: cell-based
# Design: test concentration 10 uM, cell line HepG2-A16-CD81EGFP
# ASSAY_CONTEXT: human, HepG2-A16-CD81EGFP cells; read-out: INHIBITION
MEASUREMENT_TYPE: cytotoxicity at 10 µM
In your response, the unit should come after the numeric value.

INSERT INTO measurements (compound, result) VALUES
  ('CC1CN(Cc2cccnc2)CCN1c1ccc2nncn2n1 (stereo unspecified)', '-11.1%'),
  ('Cc1nn(C)c(N2CCOCC2)c1CNCc1ccnn1C', '-1.66%'),
  ('N#Cc1cccnc1N1CCCN(CC(=O)N2CCNC(=O)C2)CC1', '4.07%'),
  ('O=C1CCC2(CCC(NCc3ccoc3)CC2)N1 (stereo unspecified)', '1.14%'),
  ('OC[C@H]1CN(Cc2c(Cl)cncc2Cl)C[C@H]1CN1CCCC1', '-127%');

Request: Give its cytotoxicity at 10 µM value. Item: O=C(CN1CC(c2nc(-c3ccco3)no2)C1)NCc1ccc(F)cc1
Result: -5.07%

Request: Could you tell me which cytotoxicity at 10 µM is on file for CSc1ccc(C(=O)N(c2ccc(F)cn2)C2CCOCC2)o1 ?
Result: -10.7%

Request: Reported cytotoxicity at 10 µM for COCC(=O)N1CCC2(CCN(Cc3cccnc3)C2)CC1 : what is it?
Result: -2.42%

Request: Record request: cytotoxicity at 10 µM value, item CC(C)COCC1CN(Cc2cnn(C)c2)Cc2ncn(C)c21 (stereo unspecified)
Result: 0.588%

Request: Quick one: cytotoxicity at 10 µM of Cc1nc(CN2C(=O)COC3(CCN(CC4CC4)CC3)C2C)cs1 (stereo unspecified) ?
Result: -131%

Request: Requested read-out: cytotoxicity at 10 µM. Entry: CN(C)C1CCCN(C(=O)NCCc2cc(F)ccc2F)C1 (stereo unspecified)
Result: -1.05%

Request: Suppose we examine the compound Cc1ccc([C@@H]2CN(C(=O)CCc3cc(Cl)no3)C[C@H]2N(C)C)cc1 ; what cytotoxicity at 10 µM value has been reported?
Result: 6.74%

Request: // returns reported cytotoxicity at 10 µM for input Cn1cnnc1-c1ccnc(NCc2ccc(Br)cc2)c1
Result: 2.87%

Request: Request the reported cytotoxicity at 10 µM associated with Cc1ccccc1OCCC(=O)N1CCc2nc(C)n(C)c(=O)c2CC1
Result: -0.852%

Request: Returns the measured cytotoxicity at 10 µM for the input compound. Input: O=C(c1ccc(Cl)s1)N1CCCn2nc(CN3CC[C@H](F)C3)cc2C1
Result: -1.44%

Request: I have this compound here, F[C@@H]1CN(CC2CC2)C[C@@H]1OCc1nc2cnccc2[nH]1 , and I need its recorded cytotoxicity at 10 µM.
Result: 8.42%
